A compilation of published IC50 results with 3',5'-cyclic-AMP phosphodiesterase 4B (Homo sapiens).
measured.property: IC50 (nM)

> print(dat)
                                   compound  measured.property  units  obs.value
1  CCCOc1cc(-c2nc(C3COB(O)C3)ns2)ccc1OC (centres unmarked)               IC50     nM       0.44
2   O=C(c1cc2cccnc2n1-c1ccnc(F)c1)N1CC(F)C1               IC50     nM        980
3  COc1ccc([C@@H]2CN(C(=O)[C@@H](O)CO)C[C@@]2(C)[C@@H](C)O)cc1OC1CN(c2ccc(C(C)C)cn2)C1               IC50     nM       0.33
4  CCOc1cc(-c2cncc(C3COB(O)C3)c2)c(F)cc1OC (centres unmarked)               IC50     nM       3.46
5  COc1ccc([C@@H]2CN(C(=O)[C@@H](O)CO)C[C@@]2(C)[C@@H](C)O)cc1OC1CN(c2ncc(C)cc2C#N)C1               IC50     nM       1.37
6  CCOc1cc(-c2cncc(C3COB(O)C3)c2)cc(Cl)c1OC (single isomer, unassigned; enantiomer 2)               IC50     nM         10
7  COc1ccc(-c2cncc(C3COB(O)C3)c2)cc1OC(C)C (centres unmarked)               IC50     nM       1.17
8  O=C(NC1CCC1)c1cc2cccnc2n1-c1ccc(Cl)c(F)c1               IC50     nM       1300

[A] COc1cnc(-c2cccc(C3COB(O)C3)c2)nc1OC (single isomer, unassigned)
[B] O=C(c1cc2cccnc2n1-c1ccc(Cl)c(F)c1)N1CC(F)C1
[C] COc1ccc(-c2cc(C3=CB(O)OC3)ccn2)cc1OC
Hey, can you sort those compounds up there by IC50, smallest first? Give the order by naming the labels one after another as requested.
A, C, B

[a] CCOc1cc(-c2cncc(C3COB(O)C3)c2)ccc1OC (centres unmarked)
[b] COc1ccc(-c2cccc(C3COB(O)C3)c2)cc1OCCCF (centres unmarked)
For the two items a and b , which reports the higher IC50 value? Write the label of whichever entry you select.
a
(a: 1.25 nM, b: 0.37 nM)

[a] CCOc1cc(-c2nc(C3COB(O)C3)cs2)c(F)cc1OC (centres unmarked)
[b] CCCOc1nc(-c2cncc(C3COB(O)C3)c2)ccc1OC (single isomer, unassigned)
I would appreciate it if you could say which entry, a or b , has the lower IC50 value. # answer = label of selected item
b
(b: 0.53 nM, a: 3 nM)
